- protocol notes: binders of probe aFST on microarray, primary screen, stem cell growth factor project, biochemical, small-molecule microarray, fluorescence 635/667 (AID 1086);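 note: score merges 667 nm fluorescence with signal-to-noise of each printed compound spot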
- condition context: higher = more signal
quantity kind: composite z-score
Kindly provide the number alone.

Use the examples below as a reference point.
O=C1NC(=O)C2C1C=CC(C(O)Cc1ccccc1)N2Nc1ccc(Cl)cc1Cl (stereo not given) | 0.337
CCCCCCC#C[Si](O[C@H](c1ccccc1)c1cn([C@H](CO)Cc2ccccc2)nn1)(C(C)C)C(C)C | -0.682
CC(C)C(CO)N1C(=O)[C@@H]2[C@H]3C(=O)OCC=C[C@H]3OC23C=CCN(C(C)C)C(=O)[C@@H]13 (stereo not given in full) | -0.422
O=C1OCCC/C=C\[C@H]2OC34C=CCN(Cc5ccccc5)C(=O)[C@H]3N(CCCCCCO)C(=O)[C@@H]4C12 (stereo not given in full) | -0.467
O=C1NC(=O)C2C1C=CC(C(O)C(c1ccccc1)c1ccccc1)N2Nc1ccc(Cl)cc1Cl (stereo not given) | 1.44
[N-]=[N+]=NCc1ccccc1C[C@]1(C(=O)NCC(O)CO)N=C(c2ccc(OCCCO)cc2)O[C@H]1c1ccccc1 (stereo not given in full) | 0.506
COC(=O)[C@@]1(Cc2ccccc2)[C@H]2c3cc(C(=O)N(C)C)n(CCSCCO)c3C[C@H]2CN1C(=O)c1ccccc1 | 0.335
CC(C)C[C@@H]1NC(=O)[C@@H]2C[C@H](C(=O)NCCCCCN)[C@H](c3cccc(OCCO)c3)N2C1=O | 0.393

Entry CC(C)(C)OC(=O)CC[C@@]12N=C(c3ccc(OCCCO)cc3)O[C@@H]1c1ccccc1N(CCS(=O)(=O)c1ccccc1)C2=O has what composite z-score?
0.687

Record: COCCOC(=O)N1C(=O)[C@@]2(c3cc(C#Cc4ccc(OC)cc4)ccc31)[C@H](C(N)=O)[C@H]1C(=O)O[C@H](c3ccccc3)[C@H](c3ccccc3)N1[C@@H]2c1ccccc1OCCO
0.433

Would you kindly repeat that for C=C[C@H](COC(C)=O)N(C(=O)OC(C)(C)C)S(=O)(=O)c1ccc(Br)cc1 ?
1.23

Consider next the compound COc1ccc(C(=O)Nc2ccc(CN3C(=O)[C@@]4(O[C@@H](CC(=O)N5CCC[C@H]5CO)[C@H]([Si](C)(C)c5ccc(OC)cc5)[C@H]4C)c4ccccc43)cc2)cc1 in the same way.
0.543

Same again, this time with CCCC=C(CCC)[C@@H](NS(=O)(=O)c1cccs1)c1ccc(C(=O)OC)cc1
0.969

Lookup C=CCC(OC(C)=O)[C@@H]1[C@@H](N(Cc2ccc(-c3cccc(C(F)(F)F)c3)o2)C(=O)c2ccc(-c3ccccc3)cc2)c2cc(OCCCO)ccc2N1C(=O)c1ccc(-c2ccccc2)cc1 (stereo not given in full)
0.13

Also CCN(CC)c1ccc(N2CC=CC34O[C@@H]5/C=C\CCC(C)OC(=O)C5[C@H]3C(=O)N(C(CO)C(C)C)[C@@H]4C2=O)cc1 (stereo not given in full) , if possible.
-0.344

----------
- protocol notes: small-molecule binders of probe aNOTCH3, primary screen, biochemical, small-molecule microarray, 635/667 nm fluorescence (AID 1120);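 note: probe is a biotin-tagged antibody raised against NOTCH3 rather than NOTCH3 protein; score merges spot fluorescence near 667 nm with spot signal to noise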
- condition context: higher = more signal
Recorded composite z-score for the following molecules
Respond numerically, and do not add a unit to the figure.

Solved cases (2 shown):
C=CC[C@@]1(C(=O)N(C)C)N=C(c2ccc(OCCCO)cc2)O[C@@H]1c1ccccc1N=[N+]=[N-] | 0.37
C=CCOC(=O)[C@H]1[C@@H]2C(=O)O[C@@H](c3ccccc3)[C@@H](c3ccccc3)N2[C@@H](c2ccc(OCCOC(=O)[C@@H]3C[C@@H]4C(=O)N5CCC[C@H]5C(=O)N4[C@@H]3c3cccc(OCCO)c3)cc2)[C@]12C(=O)Nc1ccccc12 | 0.336

Would you kindly share the measured composite z-score for CCCC=C(CCC)[C@@H](NC(=O)Oc1ccc(F)cc1)c1ccc(C(=O)OC)cc1 ?
0.209

Same for C=CCN1C(=O)[C@@]2(O[C@@H](CCO)[C@H]([Si](C)(C)c3ccc(OC)cc3)[C@H]2C)c2cc(NC(=O)c3ccc(OC)cc3)ccc21
-0.0006

Quick one: C=C[C@H](COC(C)=O)N(C(=O)OC(C)(C)C)S(=O)(=O)c1ccc(Br)cc1
0.704

And C=C(COC)/C(=C/C[C@@H](OC(C)=O)c1ccc(OCCO)cc1)c1cc(C(=O)OC)ccc1OC ?
0.0873

Now the same for CC1(C)[C@@H]2CC(C(O)C3C=CC4C(=O)N(c5ccccc5)C(=O)C4N3Nc3ccccc3)=C[C@H]1C2 (some centres not stated)
-0.0144
